Cited source for all entries: ChEMBL document CHEMBL1961873

Target entity: Platelet-derived growth factor receptor alpha (Homo sapiens)
Condition label: at 0.1 µM
Description: GSK_PKIS: PDGFRA mean inhibition at 0.1 uM [Nanosyn]
Measured property: inhibition (%)
Give the value, in units of %, as a plain number.

These solved cases illustrate the format of a correct answer.
COc1cc(Nc2ncc3c(C)nc(-c4cccc(C(F)(F)F)c4)n3n2)cc(OC)c1OC    13
Cc1ccc(C(=O)NC2CCC2)cc1-c1ccc(C(=O)NCC2CC2)cc1    1.47

Req: Look up inhibition for this compound: O=C(NCC1CC1)c1ccc(-c2cccc(C(=O)NC3CC3)c2)cc1
Resp: 8.93

Req: Item: COc1cccc(/C=N/Nc2ncnc3c2cnn3-c2cccc(OC)c2)c1
Resp: 2.69

Req: Item: Fc1ccc(-c2ncn(C3CCNCC3)c2-c2ccnc(Oc3ccc(F)c(F)c3)n2)cc1
Resp: 11
